Molecular target: T1, PDL1-hFc (UniProt Q9NZQ7 19-238)
T1 construct: Coated at 1 µg/ml in the ELISAs of the chimeric and humanized antibodies; construct not described
T1 sequence (Q9NZQ7 19-238): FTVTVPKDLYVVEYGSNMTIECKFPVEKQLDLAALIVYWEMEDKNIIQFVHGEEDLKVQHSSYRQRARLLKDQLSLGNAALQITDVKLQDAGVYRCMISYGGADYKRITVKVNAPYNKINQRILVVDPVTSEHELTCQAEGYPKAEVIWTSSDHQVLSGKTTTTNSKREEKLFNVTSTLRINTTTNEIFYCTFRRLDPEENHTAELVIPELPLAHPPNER
Assay: ELISA, PDL1-hFc coated 1 µg/ml, antibody supernatant at 300 ng/ml, anti-human Kappa HRP
Reported values of OD450-650 nM, 300 ng/ml PDL1 binding for individual entries
Kindly answer with a numeric value in OD, unit omitted.

{"columns": ["binder", "units", "OD450-650 nM, 300 ng/ml PDL1 binding"],
 "data": [
  ["3C3 heavy chain Hu-B1 / light chain Hu0 (antibody, V domains shown, Human IgG, kappa, from pTCAED vectors; tested as culture supernatant) VH: EVQLQESGPGLVKPSQTLSLTCTVSGYSITSDYWDWIRQPPGKGLEWMGYISYTGSTYYNPSLRSRITISRDTSKNQYSLKLSSVTAADTAVYYCARRGGWLSPFVYWGQGTLVTVSS VL: DIVMTQSPDSLAVSLGERATINCKSRQSLLFSSNQKNSLAWYQQKPGQPPKLLIYWASTRESGVPDRFSGSGSGTDFTLTISSLQAEDVAVYYCQQYYTYPFTFGQGTKLEIK", "OD", 0.539],
  ["3C3 heavy chain Hu-B2 / light chain M (antibody, V domains shown, Human IgG, kappa, from pTCAED vectors; tested as culture supernatant) VH: EVQLQESGPGLVKPSQTLSLTCTVSGYSITSDYWDWIRKPPGKGLEYMGYISYTGSTYYNPSLRSRITISRDTSKNQYSLKLSSVTAADTAVYYCARRGGWLSPFVYWGQGTLVTVSS VL: DTVMSQSPSSLGVSVGERVTLTCKSRQSLLFSSNQKNSLAWYQQKPGQSPKLLIYWASTRESGVPDRFTGSGSGTDFTLTISSVKSEDLAVYYCQQYYTYPFTFGAGTSLELK", "OD", 1.2]
]}

Alright, here's another binder for you.
### Prompt What does the record list as OD450-650 nM, 300 ng/ml PDL1 binding for 3C3 heavy chain Hu / light chain M (antibody, V domains shown, Human IgG, kappa, from pTCAED vectors; tested as culture supernatant) VH: QVQLQESGPGLVKPSQTLSLTCTVSGYSITSDYWDWIRQPPGKGLEWIGYISYTGSTYYNPSLRSRVTISVDTSKNQFSLKLSSVTAADTAVYYCARRGGWLSPFVYWGQGTLVTVSS VL: DTVMSQSPSSLGVSVGERVTLTCKSRQSLLFSSNQKNSLAWYQQKPGQSPKLLIYWASTRESGVPDRFTGSGSGTDFTLTISSVKSEDLAVYYCQQYYTYPFTFGAGTSLELK ?
### Response 0.25

Hey, just so you know, these numbers are from patent US20240209095A1.
